Provenance of the data: paper PMC10986499

- TESTED_TARGET: HetC (Nostoc sp. PCC 7120 = FACHB-418)
- Sequence (A0ACD7RTN5 entry or part of it): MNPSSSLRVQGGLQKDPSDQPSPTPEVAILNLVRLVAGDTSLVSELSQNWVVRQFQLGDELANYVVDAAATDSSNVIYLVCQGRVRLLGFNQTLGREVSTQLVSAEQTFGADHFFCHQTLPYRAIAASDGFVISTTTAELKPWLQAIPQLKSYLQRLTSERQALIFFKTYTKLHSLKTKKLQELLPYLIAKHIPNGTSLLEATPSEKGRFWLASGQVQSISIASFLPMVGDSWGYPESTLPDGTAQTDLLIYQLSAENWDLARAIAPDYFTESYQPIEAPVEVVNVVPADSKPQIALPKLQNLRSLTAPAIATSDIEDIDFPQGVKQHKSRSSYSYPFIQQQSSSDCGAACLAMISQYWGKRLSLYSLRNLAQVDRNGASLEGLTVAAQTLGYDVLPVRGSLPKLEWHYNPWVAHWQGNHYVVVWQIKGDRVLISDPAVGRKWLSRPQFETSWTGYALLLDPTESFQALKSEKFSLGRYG

{"SMILES_DATA": "Nc1nc2c(ncn2[C@@H]2O[C@H](COP(=O)(O)OP(=O)(O)O)[C@@H](OP(=O)(O)OP(=O)(O)O)[C@H]2O)c(=O)[nH]1", "Kd": "~59 µM"}
